experimental_protocol: Measurement of log P values by HPLC on reversed phase columns (EEC directive 79/831 Annex V.A8; methods [a] pH 2.3, [b] pH 2.7, [c] pH 7.8)
Format: physicochemical
test_parameters: method [b]: LC-MS at pH 2.7, 0.1% formic acid in water / acetonitrile
assay_metric: log P

Here are 3 compounds together with their reported answers.
compound	result
COC(CN(C(=O)c1cccnc1C(F)(F)F)C1CC1)c1ccc(Cl)cc1Cl (stereo not shown)	4.16^[b]
COC(c1ccc(Cl)cc1Cl)C(C)N(C(=O)c1cccnc1Cl)C1CC1 (stereo not shown)	4.03^[b]
COC(c1ccccc1Cl)C(C)NC(=O)c1ccccc1F (stereo not shown)	3.44^[b]

Record COC(c1ccccc1Cl)C(C)NC(=O)c1cccnc1Cl (stereo not shown) , field log P: 2.55^[b]

Measured log P, COC(CNC(=O)c1cccnc1Cl)c1cc(Cl)cc(Cl)c1 (stereo not shown) : 2.82^[b]

Please fill in: log P reported for CCOC(c1ccc(Cl)cc1Cl)C(C)NC(=O)c1ccccc1C(F)(F)F (stereo not shown) = 4.50[b]

Kindly note the recorded log P for COC(c1ccc(F)cc1)C(C)NC(=O)c1ccccc1Br (stereo not shown) , which is 2.99^[b]

----------
Listed here are molecules together with their documented log P.
experimental_protocol: Measurement of log P values by HPLC on reversed phase columns (EEC directive 79/831 Annex V.A8; methods [a] pH 2.3, [b] pH 2.7, [c] pH 7.8)
Type: physicochemical
test_parameters: method [b]: LC-MS at pH 2.7, 0.1% formic acid in water / acetonitrile

Below, each entry is followed by its recorded log P result.
molecule	log P
COC(c1ccc(Cl)cc1)C(C)NC(=O)c1ccccc1Br (stereo not drawn) [Compound 131]	3.29^[b]
CCOC(c1ccc(Cl)cc1Cl)C(C)NC(=O)c1sc(C)nc1C(F)(F)F (stereo not drawn) [Compound 204]	4.37^[b]
COC(c1ccc(F)cc1)C(C)NC(=O)c1cccnc1Cl (stereo not drawn) [Compound 184]	2.25^[b]
COC(c1ccc(Cl)cc1Cl)C1(NC(=O)c2ccccc2Br)CC1 (stereo not drawn) [Compound 151]	3.82^[b]
COC(CN(C(=O)C1=C(C)OCCS1)C1CC1)c1ccc(Cl)cc1Cl (stereo not drawn) [Compound 169]	4.11^[b]

COC(c1ccc(Cl)cc1)C(C)NC(=O)c1ccccc1C (stereo not drawn) [Compound 129] has a reported log P of 3.30^[b]

----------
experimental_protocol: Measurement of log P values by HPLC on reversed phase columns (EEC directive 79/831 Annex V.A8; methods [a] pH 2.3, [b] pH 2.7, [c] pH 7.8)
Format: physicochemical
test_parameters: method [b]: LC-MS, pH 2.7, 0.1% formic acid in water / acetonitrile
logP values, listed per item

Use these answered entries as a reference point.
compound	logP
COC(c1ccc(Cl)cc1Cl)C1(NC(=O)c2c(C(F)F)nn(C)c2F)CC1 (stereo not drawn)	3.46^[b]
COC(CNC(=O)c1cn(C)nc1C(F)F)c1ccccc1 (stereo not drawn)	1.93^[b]
COC(CNC(=O)c1c(F)cccc1F)c1ccc(Cl)cc1 (stereo not drawn)	2.81^[b]
COC(c1ccc(Cl)cc1)C(C)(C)NC(=O)c1c(F)cccc1F (stereo not drawn)	3.78^[b]
COC(CNC(=O)c1ccsc1Cl)c1ccc(Cl)cc1 (stereo not drawn)	3.15^[b]

Kindly note the recorded logP for COC(c1ccc(Cl)cc1Cl)C(C)NC(=O)c1sccc1C (stereo not drawn) , which is 4.05^[b]

According to the records, this compound CCC(NC(=O)c1cccnc1C(F)F)C(OC)c1ccc(Cl)cc1Cl (stereo not drawn) displays logP of 3.35^[b]

So for COC(c1cc(Cl)cc(Cl)c1)C(C)NC(=O)c1c(C(F)F)nn(C)c1F (stereo not drawn) , the logged logP turned out to be 3.70^[b]

Lab note: COC(CNC(=O)c1cccnc1Cl)c1ccc(Cl)cc1Cl (stereo not drawn) gave logP of 2.75^[b]

----------
Recorded measurements of log P, one per entry
experimental_protocol: Measurement of log P values by HPLC on reversed phase columns (EEC directive 79/831 Annex V.A8; methods [a] pH 2.3, [b] pH 2.7, [c] pH 7.8)
Type: physicochemical
test_parameters: method [c]: LC-MS at pH 7.8, 0.001 molar ammonium hydrogen carbonate in water / acetonitrile

# example entries with known answers
molecule	log P
COC(c1ccc(Cl)cc1)C(C)NC(=O)c1cccnc1Cl (stereo not shown)	2.62^[c];
COC(c1ccc(Cl)cc1Cl)C1(NC(=O)c2c(F)cccc2F)CC1 (stereo not shown)	3.53^[c];
COC(c1ccccc1Cl)C(C)NC(=O)c1ccccc1I (stereo not shown)	3.40^[c];
COC(c1ccc(F)cc1)C(C)NC(=O)c1c(F)cccc1F (stereo not shown)	2.76^[c];
CCOC(c1ccc(Cl)cc1Cl)C(C)NC(=O)c1ccccc1F (stereo not shown)	4.65^[c];
CCOC(c1ccc(Cl)cc1Cl)C(C)NC(=O)c1c(F)cccc1F (stereo not shown)	4.13^[c];

Given item COC(c1ccccc1Cl)C(C)NC(=O)c1ccccc1Br (stereo not shown) , the value recorded as its log P is 3.31^[c];

Memo: COC(c1ccccc1Cl)C(C)NC(=O)c1c(F)cccc1C(F)(F)F (stereo not shown) , reported log P: 3.50^[c];

Form field log P, entry CCOC(c1ccc(Cl)cc1Cl)C(C)NC(=O)c1ccccc1C(F)F (stereo not shown) : 4.40^[c];

For reference, reported log P for COC(c1ccccc1Cl)C(C)NC(=O)c1cccnc1 (stereo not shown) stands at 2.09^[c];

Field log P (entry COC(c1ccc(Cl)cc1Cl)C(C)NC(=O)c1c(C)c(C)nn1C(F)F (stereo not shown) ) reads 3.84^[c];

----------
Listed next: entries and their corresponding activity (efficacy: larval mortality).
Test system: Cooperia curticei
Type: in vivo
test_parameters: 20 ppm; after 5 days; 100% = all larvae killed
Unit % implied. Number only.

molecule	assay_metric	units	quantitative_readout
COC(CNC(=O)c1nccnc1C(F)(F)F)c1ccc(Cl)cc1Cl (stereo not drawn)	activity (efficacy: larval mortality)	%	90

Lab book: activity (efficacy: larval mortality) of COC(c1ccccc1Cl)C(C)NC(=O)c1nccnc1C(F)(F)F (stereo not drawn) noted as 80

For COC(c1ccc(Cl)cc1Cl)C(C)NC(=O)c1nccnc1C(F)(F)F (stereo not drawn) the molecule record lists activity (efficacy: larval mortality) as 90

Entry under test: COC(c1ccccc1Cl)C(C)NC(=O)c1ccsc1I (stereo not drawn) . Its activity (efficacy: larval mortality) was 80

Entry C=CCOC(CNC(=O)c1sccc1C)c1ccc(Cl)cc1 (stereo not drawn) ; activity (efficacy: larval mortality) = 100

----------
Entries and their logP values follow.
experimental_protocol: Measurement of log P values by HPLC on reversed phase columns (EEC directive 79/831 Annex V.A8; methods [a] pH 2.3, [b] pH 2.7, [c] pH 7.8)
Format: physicochemical
test_parameters: method [b]: LC-MS, pH 2.7, 0.1% formic acid in water / acetonitrile

molecule	logP
COC(c1ccc(Cl)cc1)C(C)(C)NC(=O)c1sccc1I (stereo not drawn)	4.77^[b]

Form field logP, entry COC(c1cc(Cl)cc(Cl)c1)C(C)NC(=O)c1cccnc1C(F)(F)F (stereo not drawn) : 3.52^[b]

Form field logP, entry COC(c1ccc(Cl)cc1Cl)C(C)NC(=O)c1cc(C)nn1C(F)F (stereo not drawn) : 3.73^[b]

# logP (molecule: CCOC(c1ccc(Cl)cc1Cl)C(C)NC(=O)c1cccnc1C(F)(F)F (stereo not drawn) ) is 3.92^[b]

----------
experimental_protocol: Measurement of log P values by HPLC on reversed phase columns (EEC directive 79/831 Annex V.A8; methods [a] pH 2.3, [b] pH 2.7, [c] pH 7.8)
Format: physicochemical
test_parameters: method [a]: HPLC, pH 2.3, 0.1% phosphoric acid / acetonitrile
This section presents compounds with their documented logP values.

compound	result
Cc1ccc(COC(CNC(=O)c2sccc2C)c2ccc(Cl)cc2)cc1 (stereo not shown)	4.62^[a]

Briefly, logP measured for C#CCOC(c1ccc(Cl)cc1)C(C)(C)NC(=O)c1sccc1C (stereo not shown) : 4.22^[a]

Entry under test: C#CCOC(c1ccc(Cl)c(Cl)c1)C(C)(C)NC(=O)c1sccc1C (stereo not shown) . Its logP was 4.58^[a]

What the record says about C#CCOC(CNC(=O)c1sccc1C)c1ccc(Cl)cc1 (stereo not shown) : logP is 3.18^[a]

// logP value for COC(c1ccc(Cl)cc1Cl)C(C)NC(=O)c1ccccc1C(F)(F)F (stereo not shown) : 3.90^[a]

// sample Cc1ccsc1C(=O)NCC(OCC(C)C)c1ccc(Cl)cc1 (stereo not shown) , its logP was 4.49^[a]

Measured logP of Cc1ccsc1C(=O)NCC(OCC1CC1)c1ccc(Cl)cc1 (stereo not shown) : 3.87^[a]

----------
experimental_protocol: Measurement of log P values by HPLC on reversed phase columns (EEC directive 79/831 Annex V.A8; methods [a] pH 2.3, [b] pH 2.7, [c] pH 7.8)
Assay type: physicochemical
test_parameters: reversed phase HPLC column; method [b]: LC-MS at pH 2.7, 0.1% formic acid in water / acetonitrile; read-out: log P
assay_metric: chromatographic logP
# answer = number (no unit)

# chromatographic logP of COC(c1ccc(Cl)cc1Cl)C1(NC(=O)c2nccnc2Cl)CC1 (stereo not shown) = 3.24
